Each recorded value in this set is attributed to patent US20100120700A1.

- System Under Test: DLG3 (PDZ1-2) (Homo sapiens)
- Sequence (Q92796 129-315 limits assumed): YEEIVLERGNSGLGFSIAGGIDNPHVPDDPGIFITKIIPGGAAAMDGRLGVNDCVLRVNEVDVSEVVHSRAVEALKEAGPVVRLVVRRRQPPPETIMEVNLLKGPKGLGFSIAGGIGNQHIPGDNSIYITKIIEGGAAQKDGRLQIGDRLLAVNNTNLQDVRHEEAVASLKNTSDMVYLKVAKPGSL
- Study Conditions: E6 peptide titrated against constant GST-PDZ; DLG3 (1-2)
Test Readout: EC50 (µM)
Numbers only, in µM.

Query block: // fetch DLG3 (PDZ1-2) (Homo sapiens) EC50 for 20 mer peptide corresponding to the C-terminus of HPV16 E6 (PDZ ligand), biotinylated in binding assays; ends SSRTRRETQL (SEQ ID NO: 13) [HPV E6 #16]
Result block: 3.8

* * *

- System Under Test: Magi3 (PDZ1) (Homo sapiens)
- Sequence (Q5TCQ9 401-502): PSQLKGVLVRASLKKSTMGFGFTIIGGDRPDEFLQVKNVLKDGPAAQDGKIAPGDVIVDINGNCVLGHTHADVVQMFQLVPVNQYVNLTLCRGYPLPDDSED
- Study Conditions: E6 peptide titrated against constant GST-PDZ; Magi3 (1)
Test Readout: EC50 (nM)
Numbers only, in nM.

Query block: Requested read-out: EC50. Entry: 20 mer peptide corresponding to the C-terminus of HPV16 E6 (PDZ ligand), biotinylated in binding assays; ends SSRTRRETQL (SEQ ID NO: 13) [HPV E6 #16]
Result block: 310
